- Tested on: SF-295 CNS
- ASSAY_NOTES: NCI tumour cell line growth inhibition, 48 h
MEASURE_NAME: TGI

Sample records with TGI:
COMPOUND: COc1ccc(-c2nn(-c3ccc(NC(=O)Nc4cc(C(F)(F)F)cc(C(F)(F)F)c4)cc3)cc2-c2ccncc2)cc1Cl
TGI: > 100 µM

COMPOUND: CCOC(=O)C1C2CCC1CC(=NNc1ccc([N+](=O)[O-])cc1[N+](=O)[O-])C2 (stereo not given)
TGI: > 50 µM

COMPOUND: O=C1NC2OC(C(O)CO)C(O)C2O1 (stereo not given)
TGI: > 100 µM

Required: TGI, one value per compound below.
1. COc1ccc(/C=C2\N=C(SC)NC2=O)cc1
2. CCNC(=O)Nc1cccc(NC(=O)NCC)n1
3. C=CCOc1ccc(C2C(C(=O)OCC)C(=O)CC(C)(O)C2C(=O)OCC)cc1OC (stereo not given)
4. N#CC1=C(N)N(c2ccccc2)C(c2ccccc2)C1(C#N)C#N (stereo not given)
5. COc1ccc2c(c1)CCN1CCc3ccccc3CC21 (stereo not given)
6. CCOC(=O)c1ccc(C)c(N=NN(C)C)c1

Solution:
> 100 µM
> 100 µM
> 100 µM
61.1 µM
56.1 µM
> 100 µM

Problem: I would be grateful if you could share the reported TGI for CCOc1cc(C(C)(C)C)ccc1C1=N[C@@](C)(c2ccc(Cl)cc2)[C@@](C)(c2ccc(Cl)cc2)N1C(=O)N1CCN(CCCS(C)(=O)=O)CC1 .
Solution: 15.2 µM
